The entries below come with measured EC50 values attached.
measurementTarget: human Farnesoid X Receptor (FXR) ligand binding domain (GST-FXR LBD) (Homo sapiens)
Construct: purchased Invitrogen
Sequence (Q96RI1 193-472 isoform Q96RI1-2): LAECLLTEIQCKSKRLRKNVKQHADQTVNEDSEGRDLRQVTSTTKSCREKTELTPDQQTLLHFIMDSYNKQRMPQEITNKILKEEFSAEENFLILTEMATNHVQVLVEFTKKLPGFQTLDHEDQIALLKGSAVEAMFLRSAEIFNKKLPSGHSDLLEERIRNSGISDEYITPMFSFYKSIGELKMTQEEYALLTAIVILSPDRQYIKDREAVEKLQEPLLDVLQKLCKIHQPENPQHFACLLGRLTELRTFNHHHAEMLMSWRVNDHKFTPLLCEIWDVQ
methodDescription: Human GST-FXR LBD co-activator interaction assay (HTRF)
Type: biochemical
experimentalSetup: GST-FXR LBD / biotin-SRC-1 peptide FRET; response relative to GW4064; read-out: FXR Co-activator interaction assay (EC50)

- compound: "O=C(O)c1cc(F)c(N2C3CC[C@H]2CC(OCc2c(-c4ccccc4OC(F)F)noc2C2CC2)C3)c(F)c1 (some centres unmarked) [Example 25-1B]"
  EC50 / nM: 3
- compound: "O=C(O)c1cc(F)c2nc(N3[C@@H]4CC[C@H]3C[C@@H](OCc3c(C5CC6(CC6)C5)noc3C3CC3)C4)sc2c1 [Example 29-4]"
  EC50 / nM: 11
- compound: "Cc1cc(C(=O)O)cc2sc(N3[C@@H]4CC[C@H]3C[C@@H](OCc3c(-c5ccc(F)cc5F)noc3C3CC3)C4)nc12 [Example 30-38]"
  EC50 / nM: 1.8
- compound: "O=C(O)c1ccnc(N2C3CC[C@H]2CC(OCc2c(-c4ccccc4C(F)(F)F)noc2C2CC2)C3)n1 (some centres unmarked) [Example 21-5B]"
  EC50 / nM: 10
- compound: "COC(=O)c1cc(Cl)nc(N2C3CC[C@H]2CC(OCc2c(-c4c(F)cccc4F)noc2C2CC2)C3)n1 (some centres unmarked) [Example 22-20]"
  EC50 / nM: 25
- compound: "Cc1ccccc1-c1noc(C2CC2)c1COC1CC2CC[C@@H](C1)N2c1nc2c(C)cc(C(=O)O)cc2s1 (some centres unmarked) [Example 30-36]"
  EC50 / nM: 1.1
- compound: "O=C(O)c1ccc2nc(N3C4CC[C@H]3CC(OCc3c(-c5ccc(F)cc5F)noc3C3CC3)C4)sc2c1 (some centres unmarked) [Example 30-61]"
  EC50 / nM: 2
- compound: "O=C(O)c1ccc2nc(N3C4CC[C@H]3C[C@H](OCc3c(-c5c(F)cccc5F)noc3C3CC3)C4)sc2c1 [Example 6-5B]"
  EC50 / nM: 5.6
- compound: "O=C(O)c1ccc(N2[C@@H]3CC[C@H]2C[C@@H](OCc2c(-c4c(F)cccc4F)noc2C2CC2)C3)nc1 [Example 22-13B]"
  EC50 / nM: 9
- compound: "COC(=O)c1ccc(N2C3CC[C@H]2CC(OCc2c(-c4ccccc4OC(F)F)noc2C2CC2)C3)nn1 (some centres unmarked) [Example 22-9A]"
  EC50 / nM: 1030
- compound: "Cn1ccc2c(N3C4CC[C@H]3CC(OCc3c(-c5ccccc5OC(F)(F)F)noc3C3CC3)C4)ncc(C(=O)O)c21 (some centres unmarked) [Example 30-58]"
  EC50 / nM: 210
- compound: "O=C(O)c1cc(F)c2nc(N3C4CC[C@H]3CC(OCc3c(C5CCC6CC6C5)noc3C3CC3)C4)sc2c1 (some centres unmarked) [Example 29-7]"
  EC50 / nM: 5
- compound: "O=C(O)c1cnc2cc(N3C4CC[C@H]3CC(OCc3c(-c5ccccc5OC(F)(F)F)noc3C3CC3)C4)ccn12 (stereo in doubt) [Example 32-1]"
  EC50 / nM: 3
- compound: "O=C(O)c1cnc(N2C3CC[C@H]2CC(OCc2c(-c4ccccc4OC(F)F)noc2C2CC2)C3)nc1 (some centres unmarked) [Example 22-10B]"
  EC50 / nM: 8
